Biological target: SRPK1 (Homo sapiens, UniProt Q96SB4)
Sequence (Q96SB4 whole entry): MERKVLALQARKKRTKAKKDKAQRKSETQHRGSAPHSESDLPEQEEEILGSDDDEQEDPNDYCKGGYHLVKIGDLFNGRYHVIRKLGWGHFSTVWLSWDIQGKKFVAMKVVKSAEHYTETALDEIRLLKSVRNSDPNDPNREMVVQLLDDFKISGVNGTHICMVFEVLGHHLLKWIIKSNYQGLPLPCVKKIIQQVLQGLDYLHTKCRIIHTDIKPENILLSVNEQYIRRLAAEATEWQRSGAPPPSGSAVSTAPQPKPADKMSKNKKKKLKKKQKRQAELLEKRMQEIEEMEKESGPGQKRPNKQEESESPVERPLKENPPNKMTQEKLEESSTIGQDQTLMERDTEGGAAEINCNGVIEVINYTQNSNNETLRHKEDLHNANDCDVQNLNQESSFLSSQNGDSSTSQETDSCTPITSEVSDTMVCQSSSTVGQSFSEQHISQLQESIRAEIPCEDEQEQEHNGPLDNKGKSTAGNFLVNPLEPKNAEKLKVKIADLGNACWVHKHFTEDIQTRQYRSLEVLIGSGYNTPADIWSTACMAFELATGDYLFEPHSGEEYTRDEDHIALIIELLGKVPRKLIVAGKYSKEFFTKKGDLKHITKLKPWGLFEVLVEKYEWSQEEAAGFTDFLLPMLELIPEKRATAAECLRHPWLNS
Type: biochemical
Conditions: in vitro, RNF12 phospho-Ser214 immunoblot quantified; read-out: IC50, inhibition of RNF12 phosphorylation by SRPK1
endpoint-name: IC50 (µM)
Please state the figure in µM; there is no need to write the unit.

So for `CCc1cc2c(cc1-c1cccc(S(=O)(=O)F)c1)C(C)(C)c1[nH]c3cc(C#N)ccc3c1C2=O` , the logged IC50 turned out to be 0.0152
